Every entry's value here was drawn from patent US20260184782A1.

Can you tell me Kd for the items I'm about to list?
TARGET_DESC: T1, recombinant human TIGIT (human, UniProt Q495A1 22-141, limits assumed)
T1 construct: recombinant human TIGIT used in Carterra SPR; also called hTIGIT
T1 sequence (looked up): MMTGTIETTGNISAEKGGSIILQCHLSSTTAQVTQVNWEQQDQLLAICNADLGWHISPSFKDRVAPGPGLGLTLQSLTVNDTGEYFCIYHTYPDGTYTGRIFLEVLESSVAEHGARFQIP
ASSAY_TEXT: SPR Carterra, average
Return type: number; implicit unit nM.

Item TIGIT-SC205 (Fc fusion, VHH-Fc fusion in assay) VHH: EVQLVESGGGLVQPGGSLRLSCAASGFTFDRSWMGWFRQAPGKEREFVAAIWRSGTLKAYADSVKGRFTISADNGKNTAYLQMNSLKPEDTAVYYCAEGGTTAWGWFVPWGQGTLVTVSS has what recorded Kd? 119

Field entry: TIGIT-SC101 (Fc fusion, VHH-Fc fusion in assay) VHH: EVQLVESGGGLVQPGGSLRLSCAASGRTFSSYAMGWFRQAPGKEREFVAAIDWSDGSTYYADSVKGRFTISADNSKNTAYLQMNSLKPEDTAVYYCARWYSSSGDYYYMDVWGQGTLVTVSS 73.4

Field entry: TIGIT-SC140 (Fc fusion, VHH-Fc fusion in assay) VHH: EVQLVESGGGLVQPGGSLRLSCAASGNTFSGGFTFDRSWMGWFRQAPGKEREWVASVLRGGYTWYADSVKGRFTISADNSKNTAYLQMNSLKPEDTAVYYCAGDRYYDFWSGPNSGDYWGQGTLVTVSS 68.7

Field entry: TIGIT-SC109 (Fc fusion, VHH-Fc fusion in assay) VHH: EVQLVESGGGLVQPGGSLRLSCAASGRDISSYIMGWFRQAPGKERELVAIIDTNGDDTLYADSAKGRFTISADNSKNTAYLQMNSLKPEDTAVYYCANGGRVWWAFDYWGQGTLVTVSS 121
